Every entry's value here was drawn from patent US12378202B2.

# System: NCI-H226
# TEST: Mesothelioma cell line proliferation assay (ATPlite), NCI-H226
# Type: cell-based
# ASSAY SETUP: Homo sapiens, 144 h; NCI-H226 mesothelioma cells, 6 days incubation, ATPlite cell viability
pEC50: −log10 of the molar value.
VALUE TYPE: pEC50

Give the measured pEC50 for C=CC(=O)NC1CCc2ccccc2N(c2ccc(C(F)(F)F)cc2)C1 (stereo not shown)
> 6.00

State, in one line, measured pEC50 of OCCNC1CCc2ccccc2N(c2ccc(C(F)(F)F)cc2)C1 (stereo not shown)
< 5.00

Return the recorded pEC50 value; entry: C=CC(=O)NC1Cc2ccccc2N(c2ccc(C(F)(F)F)cc2)C1=O (stereo not shown)
> 6.00

Determine from records and report pEC50 for C=CC(=O)NC1Cc2c(F)cccc2N(c2ccc(C(F)(F)F)cc2)C1=O (stereo not shown)
> 6.00
